- measured.target: ICE (Homo sapiens, UniProt P29466)
- Sequence (P29466 120-297 limits assumed): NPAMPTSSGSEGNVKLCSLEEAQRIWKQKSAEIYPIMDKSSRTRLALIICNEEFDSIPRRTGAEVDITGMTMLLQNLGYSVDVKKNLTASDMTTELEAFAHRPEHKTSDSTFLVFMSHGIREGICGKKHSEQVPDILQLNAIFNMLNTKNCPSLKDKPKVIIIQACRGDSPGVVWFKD
- Sequence (P29466 317-404 limits assumed): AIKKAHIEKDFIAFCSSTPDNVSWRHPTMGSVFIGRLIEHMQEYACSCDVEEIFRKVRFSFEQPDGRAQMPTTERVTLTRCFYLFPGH
measured.endpoint: pIC50
Notebook: values listed as pIC50 are -log10 of the concentration (mol/L).

Query :: Consider the compound shown here: Cc1ccccc1Oc1ccccc1S(=O)(=O)NC(C=O)CC(=O)O (stereo not shown) What is its recorded pIC50?
Result :: 4.85

Query :: Value lookup for pIC50; key = O=CC(CC(=O)O)NS(=O)(=O)c1ccccc1OCC1CCCO1 (stereo not shown)
Result :: 4.00

Query :: Recorded pIC50 of CCc1ccccc1Oc1ccccc1S(=O)(=O)NC(C=O)CC(=O)O (stereo not shown) , please.
Result :: 4.85

Query :: # query: pIC50 of entry O=CC(CC(=O)O)NS(=O)(=O)c1ccccc1OC1CCCCC1 (stereo not shown)
Result :: 4.70
